Source of measurements: patent US20210324061A1

molecular target: T1, human GARP-TGF-β1 complex (recombinant complex of human GARP and latent human TGF-β1) (human, UniProt Q14392 20-627; P01137 30-278; P01137 279-390); assay: SPR Biacore 3000, chip ~4000 RU hGARP-TGF-β; slope vs -20°C reference (=100%); sample stored 28 d at 37°C
T1 construct: also called huGARP-TGF-β1; hGARP-TGF-β1
T1 sequence (Q14392 20-627 limits assumed, chain 1 of 3): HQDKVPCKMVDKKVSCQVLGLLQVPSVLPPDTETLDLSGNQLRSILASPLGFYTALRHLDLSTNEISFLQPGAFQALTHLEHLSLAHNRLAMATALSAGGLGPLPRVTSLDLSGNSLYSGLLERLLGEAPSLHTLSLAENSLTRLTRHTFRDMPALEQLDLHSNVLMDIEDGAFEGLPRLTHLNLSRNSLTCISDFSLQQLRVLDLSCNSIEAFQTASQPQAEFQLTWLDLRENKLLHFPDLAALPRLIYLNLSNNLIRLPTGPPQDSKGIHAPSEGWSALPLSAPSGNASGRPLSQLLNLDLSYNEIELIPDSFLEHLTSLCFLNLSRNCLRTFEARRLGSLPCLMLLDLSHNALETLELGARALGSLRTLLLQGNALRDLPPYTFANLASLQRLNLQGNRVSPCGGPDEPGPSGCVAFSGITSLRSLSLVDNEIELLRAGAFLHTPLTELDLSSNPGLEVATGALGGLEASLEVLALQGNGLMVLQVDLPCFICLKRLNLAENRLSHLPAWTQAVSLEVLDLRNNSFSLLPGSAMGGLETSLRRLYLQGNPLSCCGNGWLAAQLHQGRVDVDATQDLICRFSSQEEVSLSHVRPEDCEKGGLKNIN
T1 sequence (P01137 30-278 limits assumed, chain 2 of 3): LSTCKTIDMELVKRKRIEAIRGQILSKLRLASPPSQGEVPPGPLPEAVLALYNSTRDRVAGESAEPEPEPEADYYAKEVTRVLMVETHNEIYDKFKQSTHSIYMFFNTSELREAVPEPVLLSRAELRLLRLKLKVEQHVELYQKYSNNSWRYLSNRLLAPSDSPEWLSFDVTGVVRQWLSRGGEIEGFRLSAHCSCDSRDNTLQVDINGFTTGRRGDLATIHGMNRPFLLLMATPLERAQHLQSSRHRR
T1 sequence (P01137 279-390 limits assumed, chain 3 of 3): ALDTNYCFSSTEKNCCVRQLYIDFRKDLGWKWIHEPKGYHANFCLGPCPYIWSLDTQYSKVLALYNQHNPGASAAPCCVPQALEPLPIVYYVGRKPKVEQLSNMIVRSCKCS
Result type: Activity on Biacore (%)
# output: bare number, implied unit %

Incoming: Could you share which Activity on Biacore (%) value was measured for 39B6-ANK IgG4 S228P (antibody, V domains shown, Variant of 39B6-A in IgG4 S228P format; Positions are Kabat-type) VH: QVQLVQPGAEVRKPGASVKVSCKASGYRFTSYYIDWVRQAPGQGLEWMGRIDPEDAGTKYAQKFQGRVTMTADTSTSTVYVELSSLRSEDTAVYYCARNKWETVVVGDLMYEYEYWGQGTLVTVSS VL: DIQMTQSPSSLSASVGDRVTITCQASQSISSYLAWYQQKPGQAPKILIYGASRLKTGVPSRFSGSGSGTSFTLTISSLEPEDAATYYCQQYASVPVTFGQGTKVEIKR ?
Outgoing: 77.8

Incoming: Ok, now 39B6-ANR IgG4 S228P (antibody, V domains shown, Variant of 39B6-A in IgG4 S228P format; Positions are Kabat-type) VH: QVQLVQPGAEVRKPGASVKVSCKASGYRFTSYYIDWVRQAPGQGLEWMGRIDPEDAGTKYAQKFQGRVTMTADTSTSTVYVELSSLRSEDTAVYYCARNRWETVVVGDLMYEYEYWGQGTLVTVSS VL: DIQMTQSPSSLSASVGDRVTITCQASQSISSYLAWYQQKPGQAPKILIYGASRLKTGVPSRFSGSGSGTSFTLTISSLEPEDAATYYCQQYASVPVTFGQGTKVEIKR
Outgoing: 85.4

Incoming: Ok, now 39B6-AVE IgG4 S228P (antibody, V domains shown, Variant of 39B6-A in IgG4 S228P format; Positions are Kabat-type) VH: QVQLVQPGAEVRKPGASVKVSCKASGYRFTSYYIDWVRQAPGQGLEWMGRIDPEDAGTKYAQKFQGRVTMTADTSTSTVYVELSSLRSEDTAVYYCARVEWETVVVGDLMYEYEYWGQGTLVTVSS VL: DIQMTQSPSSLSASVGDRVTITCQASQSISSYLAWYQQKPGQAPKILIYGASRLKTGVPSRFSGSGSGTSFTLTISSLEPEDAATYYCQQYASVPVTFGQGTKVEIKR
Outgoing: 68

Incoming: Ok, now 39B6-AYE (ARGX-115), IgG4 S228P (antibody, V domains shown) VH: QVQLVQPGAEVRKPGASVKVSCKASGYRFTSYYIDWVRQAPGQGLEWMGRIDPEDAGTKYAQKFQGRVTMTADTSTSTVYVELSSLRSEDTAVYYCARYEWETVVVGDLMYEYEYWGQGTLVTVSS VL: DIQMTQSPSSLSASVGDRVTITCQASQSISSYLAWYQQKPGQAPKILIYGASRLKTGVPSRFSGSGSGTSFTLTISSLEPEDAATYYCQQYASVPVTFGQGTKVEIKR
Outgoing: 96.1
